// provenance: patent US12419889B2

- experiment: First-in-human study Part 3, food effect PK
- Format: in vivo
- setup-conditions: human, whole blood; single oral dose 60 mg, fasted
assay-metric: Tmax (h)
Numbers only, in h.

Looking up "C=CC(=O)N(C)CCOc1c(N)ncnc1-c1cc(F)cc(NC(=O)c2ccc(C3CC3)cc2F)c1C" , I see its Tmax listed as 1
